Give kinematic viscosity for every item shown.
conditions: 298.15 K; 101.3 kPa; Liquid
One number for each entry, in m2/s.

[[record]]
molecule = "CCC(C)Cl (centres undefined)"
measuredparameter = "kinematic viscosity"
unitabbrev = "m2/s"
resultnumber = "4.54e-07"

[[record]]
molecule = "CC(C)CCl"
measuredparameter = "kinematic viscosity"
unitabbrev = "m2/s"
resultnumber = "4.92e-07"

[[record]]
molecule = "CCCCO"
measuredparameter = "kinematic viscosity"
unitabbrev = "m2/s"
resultnumber = "3.19e-06"

[[record]]
molecule = "CCC(C)O (centres undefined)"
measuredparameter = "kinematic viscosity"
unitabbrev = "m2/s"
resultnumber = "3.73e-06"

[[record]]
molecule = "CCCCCl"
measuredparameter = "kinematic viscosity"
unitabbrev = "m2/s"
resultnumber = "4.78e-07"

[[record]]
molecule = "CC(C)CO"
measuredparameter = "kinematic viscosity"
unitabbrev = "m2/s"
resultnumber = "4.25e-06"

[[record]]
molecule = "CC(C)(C)Cl"
measuredparameter = "kinematic viscosity"
unitabbrev = "m2/s"
resultnumber = "5.66e-07"

[[record]]
molecule = "CC(C)(C)O"
measuredparameter = "kinematic viscosity"
unitabbrev = "m2/s"
resultnumber = "5.59e-06"


Note: attention shifts to another entry.
Quick note, kinematic viscosity for CC1CCCO1 (centres undefined) [2-methyltetrahydrofuran] landed at 5.59e-07

---

conditions: 313.15 K; 101.3 kPa; Liquid
± gives the expanded uncertainty stated by the source.
Give mass density for every item shown.
Please don't drop the unit; write it after the number.

Hello, I would appreciate it if you could give mass density for each entry below.
1. CCCCCl
2. CC(C)CCl
3. CCC(C)O (stereo not drawn)
4. CCCCO
5. CCC(C)Cl (stereo not drawn)

OUTPUT:
863.86 ± 0.31 kg/m3
853.51 ± 0.49 kg/m3
789.44 ± 0.5 kg/m3
794.19 ± 0.3 kg/m3
850.23 ± 0.49 kg/m3

Hello, I would appreciate it if you could give mass density for each entry below.
1. CC1CCCO1 (stereo not drawn) [2-methyltetrahydrofuran]
2. CC(C)(C)O
3. CC(C)CO

OUTPUT:
834.01 ± 0.49 kg/m3
765.33 ± 0.37 kg/m3
785.89 ± 0.36 kg/m3

---

conditions: 298.15 K; 101.3 kPa; Liquid
± gives the expanded uncertainty stated by the source.
measuredParameter: mass density
Please don't drop the unit; write it after the number.

# count of solved cases: 5
[[record]]
molecule = "CC(C)CCl"
measuredparameter = "mass density"
result = "870.93 ± 0.49 kg/m3"

[[record]]
molecule = "CC(C)CO"
measuredparameter = "mass density"
result = "797.71 ± 0.35 kg/m3"

[[record]]
molecule = "CC(C)(C)Cl"
measuredparameter = "mass density"
result = "835.75 ± 0.49 kg/m3"

[[record]]
molecule = "CCCCO"
measuredparameter = "mass density"
result = "805.56 ± 0.29 kg/m3"

[[record]]
molecule = "CCC(C)Cl (centres undefined)"
measuredparameter = "mass density"
result = "867.31 ± 0.49 kg/m3"


Hello, I would appreciate it if you could give mass density for each entry below.
1. CC(C)(C)O
2. CCCCCl

OUTPUT:
1. 780.67 ± 0.36 kg/m3
2. 880.62 ± 0.3 kg/m3

Hello, I would appreciate it if you could give mass density for each entry below.
1. CC1CCCO1 (centres undefined) [2-methyltetrahydrofuran]
2. CCC(C)O (centres undefined)

OUTPUT:
1: 849.28 ± 0.49 kg/m3; 2: 802.25 ± 0.49 kg/m3
